Biological target: EGFR exon 20 ASV Ins V769_D770 (Ba/F3 cells) (Homo sapiens, UniProt P00533, INS769ASV)
Construct: expressed in transfected cells; host or cells: Ba/F3 (murine pro-B cells), retroviral transduction, puromycin selection, IL3-independent pool
Sequence (P00533 with tags, fused parts or gaps INS769ASV): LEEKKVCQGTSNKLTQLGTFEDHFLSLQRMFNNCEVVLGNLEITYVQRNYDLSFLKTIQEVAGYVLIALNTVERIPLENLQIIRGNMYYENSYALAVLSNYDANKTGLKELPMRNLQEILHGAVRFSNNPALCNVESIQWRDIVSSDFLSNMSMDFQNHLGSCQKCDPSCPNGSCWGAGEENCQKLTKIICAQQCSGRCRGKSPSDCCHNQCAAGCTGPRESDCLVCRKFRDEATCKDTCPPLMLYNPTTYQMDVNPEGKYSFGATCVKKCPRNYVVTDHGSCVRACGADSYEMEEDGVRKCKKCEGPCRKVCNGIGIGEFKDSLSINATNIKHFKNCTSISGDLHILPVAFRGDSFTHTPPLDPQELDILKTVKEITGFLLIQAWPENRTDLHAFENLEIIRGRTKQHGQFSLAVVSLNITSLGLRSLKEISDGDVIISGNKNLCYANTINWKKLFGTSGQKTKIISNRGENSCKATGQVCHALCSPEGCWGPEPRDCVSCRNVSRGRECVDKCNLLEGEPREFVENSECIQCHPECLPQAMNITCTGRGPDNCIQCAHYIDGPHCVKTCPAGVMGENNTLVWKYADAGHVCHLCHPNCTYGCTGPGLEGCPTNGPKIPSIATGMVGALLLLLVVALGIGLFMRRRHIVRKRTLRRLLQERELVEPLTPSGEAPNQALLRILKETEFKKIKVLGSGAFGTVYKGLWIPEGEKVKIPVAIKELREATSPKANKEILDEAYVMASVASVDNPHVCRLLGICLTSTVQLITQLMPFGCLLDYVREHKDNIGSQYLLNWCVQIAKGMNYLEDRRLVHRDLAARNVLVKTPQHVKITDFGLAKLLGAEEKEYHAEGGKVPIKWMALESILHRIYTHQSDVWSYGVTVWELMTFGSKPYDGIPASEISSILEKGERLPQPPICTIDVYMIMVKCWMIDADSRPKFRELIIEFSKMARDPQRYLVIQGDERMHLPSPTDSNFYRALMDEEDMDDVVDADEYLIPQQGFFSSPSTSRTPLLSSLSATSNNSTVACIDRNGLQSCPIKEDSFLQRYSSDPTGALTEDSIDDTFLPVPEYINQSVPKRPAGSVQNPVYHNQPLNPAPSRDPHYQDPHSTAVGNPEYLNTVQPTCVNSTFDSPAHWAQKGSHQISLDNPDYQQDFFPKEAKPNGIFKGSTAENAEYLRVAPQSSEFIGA
Assay: Inhibitor activity on EGFR-dependent cell growth (CellTiter-Glo, 72 h), Ba/F3 EGFR exon 20 ASV Ins
Type: cell-based
Details: read-out: BaF3 ASV IC50
PROPERTY: IC50

Reference set (2 entries):
>  <COMPOUND>
COc1c(F)cccc1Nc1c2c(n(C)c1-c1ccncc1F)CCNC2=O [Compound 789]

>  <REPORTED>
> 1000 nM

$$$$
>  <COMPOUND>
COC(=O)N1CCC2(CC1)CNC(=O)c1c2[nH]c(-c2ccncc2F)c1Nc1cccc(Cl)c1OC [Compound 479]

>  <REPORTED>
100 to 1000 nM

$$$$

// IC50 (EGFR exon 20 ASV Ins V769_D770 (Ba/F3 cells) (Homo sapiens, UniProt P00533, INS769ASV)) for COc1c(F)cc(F)cc1Nc1c(-c2ccnc(N)n2)[nH]c2c1C(=O)NCC2 [compound 304] = 100 to 1000 nM

Given the compound COc1c(Cl)cccc1Nc1c(-c2ccnc(Nc3cnn(C)c3)n2)[nH]c2c1C(=O)NCC2 [compound 109] and test system EGFR exon 20 ASV Ins V769_D770 (Ba/F3 cells) (Homo sapiens, UniProt P00533, INS769ASV), the measured IC50 is < 100 nM

----------
Target: EGFR exon 20 ASV Ins V769_D770 (Ba/F3 cells) (Homo sapiens, UniProt P00533, INS769ASV)
Construct: expressed in transfected cells; host or cells: Ba/F3 (murine pro-B cells), retroviral transduction, puromycin selection, IL3-independent pool
Assay: Inhibitor activity on EGFR-dependent cell growth (CellTiter-Glo, 72 h), Ba/F3 EGFR exon 20 ASV Ins
Format: cell-based
Conditions: read-out: BaF3 ASV IC50
pIC50: −log10 of the molar value.
PROPERTY: pIC50

Short answer on EGFR exon 20 ASV Ins V769_D770 (Ba/F3 cells) (Homo sapiens, UniProt P00533, INS769ASV) for CC#CC(=O)N1CCC2(CC1)CNC(=O)c1c2[nH]c(-c2ccncc2F)c1Nc1cccc(F)c1OC [Compound 609] , pIC50: 6.00 to 7.00

Value (pIC50, EGFR exon 20 ASV Ins V769_D770 (Ba/F3 cells) (Homo sapiens, UniProt P00533, INS769ASV)) for record COc1c(Cl)cccc1Nc1c(-c2ccnc(NCC(F)F)n2)[nH]c2c1C(=O)NCC2 [Compound 702] = 6.00 to 7.00

Bench note, EGFR exon 20 ASV Ins V769_D770 (Ba/F3 cells) (Homo sapiens, UniProt P00533, INS769ASV): entry COc1ccc2nccc(-c3[nH]c4c(c3Nc3cccc(F)c3OC)C(=O)NCC4)c2n1 [Compound 681] , its pIC50 = > 7.00

The molecule COc1c(Cl)cccc1Nc1c(-c2ccnc(Nc3cnnn3CS(C)(=O)=O)n2)[nH]c2c1C(=O)NCC2 [compound 539] on EGFR exon 20 ASV Ins V769_D770 (Ba/F3 cells) (Homo sapiens, UniProt P00533, INS769ASV): pIC50 was 6.00 to 7.00

----------
Measured IC50, listed per entry.
Target: EGFR WT (Ba/F3 cells) (Homo sapiens, UniProt P00533)
Sequence (P00533 25-1210): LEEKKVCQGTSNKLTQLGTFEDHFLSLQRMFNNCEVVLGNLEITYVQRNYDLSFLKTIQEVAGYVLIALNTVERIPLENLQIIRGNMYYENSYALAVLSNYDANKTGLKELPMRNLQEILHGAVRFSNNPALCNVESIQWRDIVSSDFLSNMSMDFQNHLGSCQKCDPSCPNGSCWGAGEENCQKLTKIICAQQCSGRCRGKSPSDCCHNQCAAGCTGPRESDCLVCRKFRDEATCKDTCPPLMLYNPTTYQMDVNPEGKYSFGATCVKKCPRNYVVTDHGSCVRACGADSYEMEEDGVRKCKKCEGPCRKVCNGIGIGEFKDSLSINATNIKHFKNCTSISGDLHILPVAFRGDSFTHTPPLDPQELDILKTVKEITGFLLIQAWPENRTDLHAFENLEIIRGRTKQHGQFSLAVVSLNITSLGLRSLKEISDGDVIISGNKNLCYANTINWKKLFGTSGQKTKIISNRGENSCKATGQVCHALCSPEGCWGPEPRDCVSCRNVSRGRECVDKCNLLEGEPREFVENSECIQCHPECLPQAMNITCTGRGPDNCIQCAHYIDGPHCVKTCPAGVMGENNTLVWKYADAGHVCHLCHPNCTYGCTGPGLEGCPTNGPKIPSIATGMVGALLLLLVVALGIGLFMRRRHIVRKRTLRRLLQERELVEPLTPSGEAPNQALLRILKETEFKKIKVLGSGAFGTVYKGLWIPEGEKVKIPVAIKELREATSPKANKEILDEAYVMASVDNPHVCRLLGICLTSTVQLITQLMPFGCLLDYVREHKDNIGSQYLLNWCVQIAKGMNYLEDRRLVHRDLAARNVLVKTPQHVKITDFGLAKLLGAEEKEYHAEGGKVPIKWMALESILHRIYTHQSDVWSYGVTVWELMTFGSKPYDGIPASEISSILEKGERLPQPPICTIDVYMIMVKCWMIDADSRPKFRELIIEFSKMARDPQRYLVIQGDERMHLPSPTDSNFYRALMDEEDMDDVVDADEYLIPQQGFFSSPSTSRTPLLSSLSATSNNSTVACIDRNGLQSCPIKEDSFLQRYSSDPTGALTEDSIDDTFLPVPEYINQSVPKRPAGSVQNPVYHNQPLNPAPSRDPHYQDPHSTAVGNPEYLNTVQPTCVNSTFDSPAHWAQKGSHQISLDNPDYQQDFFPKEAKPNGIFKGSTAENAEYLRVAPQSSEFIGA
Experiment: Inhibitor activity on EGFR-dependent cell growth (CellTiter-Glo, 72 h), Ba/F3 EGFR WT
Conditions: read-out: BaF3 WT IC50

>  <MOLECULE>
COCC[C@@H]1CNC(=O)c2c1[nH]c(-c1ccncn1)c2Nc1cccc(Cl)c1OC [445a]

>  <IC50>
0.1 to 1 µM

$$$$
>  <MOLECULE>
COc1c(Cl)cccc1Nc1c(-c2ccncc2F)[nH]c2c1C(=O)NCC21CCOCC1 [Compound 778]

>  <IC50>
> 1 µM

$$$$
>  <MOLECULE>
COc1c(F)cccc1Nc1c(-c2ccnc3cnc(OC4COC4)nc23)[nH]c2c1C(=O)NCC2 [compound 440]

>  <IC50>
0.1 to 1 µM

$$$$
>  <MOLECULE>
COc1c(Cl)cccc1Nc1c(-c2ccncc2F)[nH]c2c1C(=O)NC[C@@H]2CC1COC1 [468a]

>  <IC50>
> 1 µM

$$$$
>  <MOLECULE>
COc1c(F)cccc1Nc1c(-c2ccnc3[nH]ccc23)[nH]c2c1C(=O)NCC2 [compound 252]

>  <IC50>
> 1 µM

$$$$
>  <MOLECULE>
COC(=O)N1CCC2(CC1)CNC(=O)c1c2[nH]c(-c2ccncc2F)c1Nc1cccc(Cl)c1OC [Compound 479]

>  <IC50>
> 1 µM

$$$$

Please fill in: IC50 reported for COc1ncc2nccc(-c3[nH]c4c(c3Nc3cccc(Cl)c3)C(=O)NCC4)c2n1 [Compound 798] = 0.1 to 1 µM

Note to self: IC50 recorded for CNc1cc(-c2[nH]c3c(c2Nc2cccc(Cl)c2OC)C(=O)NCC3)ncn1 [compound 284] was > 1 µM

IC50 recorded for this molecule, COc1c(Cl)cccc1Nc1c(-c2ccnc(C)n2)[nH]c2c(C[C@H]3COCCO3)c[nH]c(=O)c12 [compound 659] , is > 1 µM

# IC50 of COc1c(Cl)cccc1Nc1c(-c2ccncc2F)[nH]c2c1C(=O)NC[C@@]21CCN(CC(F)F)C1 [compound 822] = > 1 µM

----------
Biological target: EGFR exon 20 SVD Ins D770_N771 (Ba/F3 cells) (Homo sapiens, UniProt P00533, INS770SVD)
Construct: expressed in transfected cells; host or cells: Ba/F3 (murine pro-B cells), retroviral transduction, puromycin selection, IL3-independent pool
Sequence (P00533 with tags, fused parts or gaps INS770SVD): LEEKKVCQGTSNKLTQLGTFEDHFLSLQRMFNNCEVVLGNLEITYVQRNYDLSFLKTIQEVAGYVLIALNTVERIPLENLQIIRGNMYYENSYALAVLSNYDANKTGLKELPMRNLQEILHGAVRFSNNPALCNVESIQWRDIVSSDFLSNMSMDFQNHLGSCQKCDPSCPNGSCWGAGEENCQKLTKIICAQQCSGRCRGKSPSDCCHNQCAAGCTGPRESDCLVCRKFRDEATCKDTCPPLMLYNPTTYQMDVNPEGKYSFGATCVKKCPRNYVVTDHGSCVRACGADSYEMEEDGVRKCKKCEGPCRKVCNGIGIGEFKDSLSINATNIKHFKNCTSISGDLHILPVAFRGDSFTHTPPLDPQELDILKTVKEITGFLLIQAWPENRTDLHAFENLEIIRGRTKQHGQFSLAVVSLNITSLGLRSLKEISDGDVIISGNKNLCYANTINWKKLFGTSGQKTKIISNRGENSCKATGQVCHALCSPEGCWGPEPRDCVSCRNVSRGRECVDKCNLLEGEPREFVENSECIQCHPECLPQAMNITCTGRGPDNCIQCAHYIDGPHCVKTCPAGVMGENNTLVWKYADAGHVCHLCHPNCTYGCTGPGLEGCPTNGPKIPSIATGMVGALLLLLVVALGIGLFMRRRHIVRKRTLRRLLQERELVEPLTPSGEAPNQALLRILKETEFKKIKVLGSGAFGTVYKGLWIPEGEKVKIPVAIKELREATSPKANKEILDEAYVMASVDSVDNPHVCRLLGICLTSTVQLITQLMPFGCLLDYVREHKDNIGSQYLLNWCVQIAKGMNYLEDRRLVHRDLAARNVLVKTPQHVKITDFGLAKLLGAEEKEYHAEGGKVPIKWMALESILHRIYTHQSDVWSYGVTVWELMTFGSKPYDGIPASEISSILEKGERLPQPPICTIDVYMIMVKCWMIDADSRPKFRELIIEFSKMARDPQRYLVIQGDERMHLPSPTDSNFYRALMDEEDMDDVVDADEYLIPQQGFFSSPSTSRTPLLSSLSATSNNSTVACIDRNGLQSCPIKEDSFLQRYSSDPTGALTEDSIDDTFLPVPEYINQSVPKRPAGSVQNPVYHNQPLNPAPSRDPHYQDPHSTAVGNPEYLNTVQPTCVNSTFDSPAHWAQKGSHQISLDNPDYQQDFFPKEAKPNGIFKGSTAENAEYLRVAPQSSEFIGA
Assay: Inhibitor activity on EGFR-dependent cell growth (CellTiter-Glo, 72 h), Ba/F3 EGFR exon 20 SVD Ins
Assay type: cell-based
Conditions: read-out: BaF3 SVD IC50
pIC50: −log10 of the molar value.
Documented pIC50 across a set of compounds

The cases that follow already have their pIC50 on record.
>  <COMPOUND>
COc1c(Cl)cccc1Nc1c(-c2ccncc2F)[nH]c2c1C(=O)NC[C@@H]2CC1COC1 [468a]

>  <EXPERIMENTAL TARGET>
EGFR exon 20 SVD Ins D770_N771 (Ba/F3 cells) (Homo sapiens, UniProt P00533, INS770SVD)

>  <PROPERTY>
pIC50

>  <REPORTED>
< 6.00

$$$$
>  <COMPOUND>
COCC[C@@H]1CNC(=O)c2c1[nH]c(-c1ccnc(N)n1)c2Nc1cccc(Cl)c1OC

>  <EXPERIMENTAL TARGET>
EGFR exon 20 SVD Ins D770_N771 (Ba/F3 cells) (Homo sapiens, UniProt P00533, INS770SVD)

>  <PROPERTY>
pIC50

>  <REPORTED>
> 7.00

$$$$
>  <COMPOUND>
C=CC(=O)N1CCC2(CC1)CNC(=O)c1c2[nH]c(-c2ccncn2)c1Nc1cccc(Cl)c1OC

>  <EXPERIMENTAL TARGET>
EGFR exon 20 SVD Ins D770_N771 (Ba/F3 cells) (Homo sapiens, UniProt P00533, INS770SVD)

>  <PROPERTY>
pIC50

>  <REPORTED>
> 7.00

$$$$
>  <COMPOUND>
COc1c(Cl)cccc1Nc1c(-c2ccnc(-c3ccn(C)n3)n2)[nH]c2c1C(=O)NCC2

>  <EXPERIMENTAL TARGET>
EGFR exon 20 SVD Ins D770_N771 (Ba/F3 cells) (Homo sapiens, UniProt P00533, INS770SVD)

>  <PROPERTY>
pIC50

>  <REPORTED>
6.00 to 7.00

$$$$

The compound "COc1c(Cl)cccc1Nc1c(-c2ccnc(NC[C@H]3CCO3)n2)[nH]c2c1C(=O)NCC2" showed pIC50 equal to < 6.00

Memo: "COc1ncc2nccc(-c3[nH]c4c(c3Nc3cccc(Cl)c3OC)C(=O)N[C@@H](C(F)(F)F)C4)c2n1" , reported pIC50: > 7.00

Recorded pIC50 (compound "C=CC(=O)NCC[C@H]1CNC(=O)c2c1[nH]c(-c1ccnc(C)n1)c2Nc1cccc(Cl)c1OC" ): 6.00 to 7.00

----------
Target: EGFR exon 20 SVD Ins D770_N771 (Ba/F3 cells) (Homo sapiens, UniProt P00533, INS770SVD)
Construct: expressed in transfected cells; host or cells: Ba/F3 (murine pro-B cells), retroviral transduction, puromycin selection, IL3-independent pool
Assay: Inhibitor activity on EGFR-dependent cell growth (CellTiter-Glo, 72 h), Ba/F3 EGFR exon 20 SVD Ins
Assay type: cell-based
Settings: read-out: BaF3 SVD IC50
pIC50: −log10 of the molar value.
PROPERTY: pIC50

>  <MOLECULE>
COc1c(F)cccc1Nc1c(-c2ccnc3cnc(OC4COC4)nc23)[nH]c2c1C(=O)NCC2 [compound 440]

>  <REPORTED>
> 7.00

$$$$
>  <MOLECULE>
COc1c(Cl)cccc1Nc1c(-c2ccnc3ccc(OCC4CN(C)C4)nc23)[nH]c2c1C(=O)NCC2 [compound 738]

>  <REPORTED>
> 7.00

$$$$
>  <MOLECULE>
COc1ccc2ncc(F)c(-c3[nH]c4c(c3Nc3cccc(Cl)c3OC)C(=O)NCC4)c2n1 [compound 829]

>  <REPORTED>
< 6.00

$$$$

Looking up COc1c(Cl)cccc1Nc1c(-c2ccncc2F)[nH]c2c1C(=O)NC[C@@]21CCN(CC(F)(F)F)C1 [compound 817] , I found its pIC50 recorded as > 7.00

Lab note: COc1c(Cl)cccc1Nc1c(-c2ccnc(NC[C@@H]3CCO3)n2)[nH]c2c1C(=O)NCC2 [compound 719] gave pIC50 of < 6.00

The recorded pIC50 for entry C=CC(=O)N1CCC2(CC1)CNC(=O)c1c2[nH]c(-c2ccncc2F)c1Nc1cccc(Cl)c1F [Compound 586] equals > 7.00

Short answer for COc1cc2nccc(-c3[nH]c4c(c3Nc3cccc(Cl)c3OC)C(=O)NCC4)c2nc1OCCN(C)C [compound 501] : pIC50 was > 7.00

Record COc1cc2nccc(-c3[nH]c4c(c3Nc3cccc(Cl)c3OC)C(=O)NCC4)c2nc1OC [compound 730] . Reported pIC50: > 7.00

pIC50 for COc1ncc2nccc(-c3[nH]c4c(c3Nc3cccc(Cl)c3C(F)(F)F)C(=O)NCC4)c2n1 [Compound 801] is < 6.00

Entry COc1c(Cl)cccc1Nc1c(-c2ccncc2F)[nH]c2c1C(=O)NC[C@H]2CCN(C)C [compound 486] , pIC50 reported as < 6.00

Short answer for COc1c(Cl)cccc1Nc1c(-c2ccnc(N)n2)[nH]c2c1C(=O)NC[C@H]2C [186b] : pIC50 was > 7.00

Kindly note the recorded pIC50 for COc1c(Cl)cccc1Nc1c(-c2ccncc2F)[nH]c2c1C(=O)NC[C@H]2CCN1CCOCC1 [compound 484] , which is < 6.00
